# targetSystem: T1, human SIRPα1 (huSIRPα1), protein antigen (human, UniProt P78324 31-370, limits assumed, biotinylated in the SPR assay)
# T1 construct: Coated on the plate in ELISA, biotinylated and captured in SPR; also called v2
# T1 sequence (P78324 other isoform, or with tags, fused parts or gaps limits assumed): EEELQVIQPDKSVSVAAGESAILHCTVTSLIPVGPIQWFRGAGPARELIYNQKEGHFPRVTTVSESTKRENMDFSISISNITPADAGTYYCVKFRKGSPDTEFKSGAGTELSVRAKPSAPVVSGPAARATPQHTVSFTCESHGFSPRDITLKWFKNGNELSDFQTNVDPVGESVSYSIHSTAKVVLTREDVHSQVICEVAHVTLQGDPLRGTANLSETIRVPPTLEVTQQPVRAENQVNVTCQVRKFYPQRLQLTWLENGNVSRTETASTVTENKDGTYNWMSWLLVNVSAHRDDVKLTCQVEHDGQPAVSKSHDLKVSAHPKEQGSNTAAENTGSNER
# assayProcedure: ELISA, antigen coated
endpointName: EC50

Data request: Name the reported EC50 value associated with the binder 12C4huIgG1LALA (antibody, V domains shown, HAVT20 leader left out; also called 12C4LALA; huIgG112C4LALA) VH: EVKLEESGGGLMQPGGSMKLSCVASGFTFSNYWMNWVRQSPEKGLEWVAEIRLKSNNYATHYAESVKGRFTISRDDSKSSVYLQMNNLRAEDTGIYYCIRDYDYDAYFDYWGQGTTLTVSS VL: DIVLTQSPASLAVSLGQRATISCRASKSVSTSGYNYMYWYQQKPGQPPKLLIYLASNLESGVPARFSGSGSGTDFTLNIHPVEEEDAATYYCQHSGELPYTFGGGTKLEIKR
Data returned: 7 ng/mL
